So I've got a bunch of molecules here, and I need their IC50 values.
- testSystem: CYP2C19 (Homo sapiens (Human), UniProt P33261)
- Sequence (P33261 whole entry): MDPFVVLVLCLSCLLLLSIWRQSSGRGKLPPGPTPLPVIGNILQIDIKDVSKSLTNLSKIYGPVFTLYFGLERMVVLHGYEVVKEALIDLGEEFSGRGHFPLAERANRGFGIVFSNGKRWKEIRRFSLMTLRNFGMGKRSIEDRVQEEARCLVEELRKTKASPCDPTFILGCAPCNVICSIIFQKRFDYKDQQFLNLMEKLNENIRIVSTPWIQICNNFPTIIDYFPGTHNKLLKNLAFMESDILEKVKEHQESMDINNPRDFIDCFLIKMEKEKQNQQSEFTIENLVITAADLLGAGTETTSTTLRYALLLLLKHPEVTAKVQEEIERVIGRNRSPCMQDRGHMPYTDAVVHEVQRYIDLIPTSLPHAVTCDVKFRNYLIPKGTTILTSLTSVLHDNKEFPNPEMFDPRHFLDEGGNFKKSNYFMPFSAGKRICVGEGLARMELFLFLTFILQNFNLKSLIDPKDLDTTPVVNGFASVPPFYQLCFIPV
- conditionDescription: microsomes, 45 min

The value of IC50 measured for the molecule COc1cc(Br)c2c(C(=O)OCC34CCN(CC3)CC4)c[nH]c2c1 turned out to be > 10 µM

The value of IC50 measured for the molecule Cc1cc(C)c2c(C(=O)OCC34CCN(CC3)CC4)c[nH]c2c1 turned out to be > 10 µM

The value of IC50 measured for the molecule Cc1cc(C#N)cc2[nH]cc(C(=O)OCC34CCN(CC3)CC4)c12 turned out to be > 10 µM

The value of IC50 measured for the molecule COc1cc2[nH]cc(C(=O)OCC34CCN(CC3)CC4)c2cc1C turned out to be > 10 µM

The value of IC50 measured for the molecule COc1ccc2[nH]cc(C(=O)OCC34CCN(CC3)CC4)c2c1Cl turned out to be > 10 µM

The value of IC50 measured for the molecule COc1ccc2[nH]cc(C(=O)OCC34CCN(CC3)CC4)c2c1Br turned out to be > 10 µM

The value of IC50 measured for the molecule COc1cc(Cl)c2c(C(=O)OCC34CCN(CC3)CC4)c[nH]c2c1 turned out to be > 10 µM

The value of IC50 measured for the molecule Cc1cc2c(C(=O)OCC34CCN(CC3)CC4)c[nH]c2cc1O turned out to be > 10 µM

The value of IC50 measured for the molecule Cc1cc(Br)c2c(C(=O)OCC34CCN(CC3)CC4)c[nH]c2c1 turned out to be > 10 µM

The value of IC50 measured for the molecule COc1ccc2[nH]cc(C(=O)OCC34CCN(CC3)CC4)c2c1OC turned out to be > 10 µM

###

- testSystem: CYP1A2 (Homo sapiens (Human), UniProt P05177)
- Sequence (P05177 whole entry): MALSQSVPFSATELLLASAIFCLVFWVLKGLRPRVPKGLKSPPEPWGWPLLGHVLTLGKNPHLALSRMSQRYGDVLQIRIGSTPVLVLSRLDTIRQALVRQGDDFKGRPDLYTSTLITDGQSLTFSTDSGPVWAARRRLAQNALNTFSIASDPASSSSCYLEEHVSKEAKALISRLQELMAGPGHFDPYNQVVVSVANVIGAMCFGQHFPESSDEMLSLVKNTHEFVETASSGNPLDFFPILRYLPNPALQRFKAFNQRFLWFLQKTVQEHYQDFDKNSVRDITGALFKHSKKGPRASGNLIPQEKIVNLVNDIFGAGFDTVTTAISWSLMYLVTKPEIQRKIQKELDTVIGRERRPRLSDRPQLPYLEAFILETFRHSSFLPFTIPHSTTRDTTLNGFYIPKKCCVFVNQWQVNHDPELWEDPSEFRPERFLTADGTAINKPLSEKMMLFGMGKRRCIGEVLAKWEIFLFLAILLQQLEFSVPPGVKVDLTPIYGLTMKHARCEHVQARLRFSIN
- testSummary: Cytochrome P450 inhibition in human liver microsomes, CYP1A2
- conditionDescription: read-out: 1A2 IC50, Protocol 1
pIC50: −log10 of the molar value.
So I've got a bunch of compounds here, and I need their pIC50 values.

The value of pIC50 measured for the compound Cc1cc(Br)c2c(C(=O)OCC34CCN(CC3)CC4)c[nH]c2c1 turned out to be < 5.00

The value of pIC50 measured for the compound COc1ccc2[nH]cc(C(=O)OCC34CCN(CC3)CC4)c2c1Cl turned out to be < 5.00

The value of pIC50 measured for the compound O=C(OCC12CCN(CC1)CC2)c1c[nH]c2cc(O)cc(Br)c12 turned out to be < 5.00

The value of pIC50 measured for the compound Cl.O=C(OCC12CCN(CC1)CC2)c1c[nH]c2cc(Cl)c(F)cc12 [Compound 52, hydrochloride] turned out to be < 5.00

The value of pIC50 measured for the compound Cc1cc(O)cc2[nH]cc(C(=O)OCC34CCN(CC3)CC4)c12 turned out to be < 5.00

###

- testSystem: rat brain nicotinic receptor (α7 NAChR) (Rattus norvegicus (Rat))
- Sequence (Q05941 23-502 limits assumed): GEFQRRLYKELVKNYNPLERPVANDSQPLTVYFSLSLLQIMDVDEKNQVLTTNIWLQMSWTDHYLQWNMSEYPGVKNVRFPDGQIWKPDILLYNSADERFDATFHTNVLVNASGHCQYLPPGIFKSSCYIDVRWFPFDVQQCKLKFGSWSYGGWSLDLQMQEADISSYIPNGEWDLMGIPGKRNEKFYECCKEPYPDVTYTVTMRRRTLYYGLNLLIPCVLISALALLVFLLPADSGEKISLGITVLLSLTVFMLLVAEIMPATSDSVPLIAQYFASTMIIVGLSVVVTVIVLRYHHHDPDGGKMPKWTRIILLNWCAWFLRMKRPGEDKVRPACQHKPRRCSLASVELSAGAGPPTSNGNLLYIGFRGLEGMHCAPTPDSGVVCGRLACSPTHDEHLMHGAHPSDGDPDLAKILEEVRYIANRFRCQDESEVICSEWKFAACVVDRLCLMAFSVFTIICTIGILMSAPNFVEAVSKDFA
- Assay type: binding
resultType: log10 Ki (log10 of the value in nM)
Short version: log10 scale, Ki, nM.

The value of log10 Ki measured for the compound O=C(OCC12CCN(CC1)CC2)c1c[nH]c2ccccc12 [Compound 1] turned out to be 1.44

The value of log10 Ki measured for the compound Cc1cc2[nH]cc(C(=O)OCC34CCN(CC3)CC4)c2cc1C.Cl [Compound 73, hydrochloride] turned out to be 2.16

The value of log10 Ki measured for the compound O=C(OCC12CCN(CC1)CC2)c1c[nH]c2ccc(Cl)cc12 [Compound 27] turned out to be 2.39

The value of log10 Ki measured for the compound O=C(OCC12CCN(CC1)CC2)c1c[nH]c2ccc(F)cc12 [Compound 12] turned out to be 1.88

The value of log10 Ki measured for the compound Cc1ccc2[nH]cc(C(=O)OCC34CCN(CC3)CC4)c2c1Cl [Compound 63] turned out to be 2.00

The value of log10 Ki measured for the compound Cl.O=C(OCC12CCN(CC1)CC2)c1c[nH]c2cc(F)c(F)cc12 [Compound 51, hydrochloride] turned out to be 2.75

The value of log10 Ki measured for the compound COc1ccc2[nH]cc(C(=O)OCC34CCN(CC3)CC4)c2c1Br [Compound 47] turned out to be 1.45

The value of log10 Ki measured for the compound Cc1ccc2c(C(=O)OCC34CCN(CC3)CC4)c[nH]c2c1.Cl [Compound 45, hydrochloride] turned out to be 1.80

The value of log10 Ki measured for the compound Cc1cccc2c(C(=O)OCC34CCN(CC3)CC4)c[nH]c12 [Compound 19] turned out to be 2.82
